Biological target: GABA-A receptor; alpha-1/beta-3/gamma-2 (Homo sapiens, UniProt P14867+P18507+P28472)
Sequence (P14867 whole entry): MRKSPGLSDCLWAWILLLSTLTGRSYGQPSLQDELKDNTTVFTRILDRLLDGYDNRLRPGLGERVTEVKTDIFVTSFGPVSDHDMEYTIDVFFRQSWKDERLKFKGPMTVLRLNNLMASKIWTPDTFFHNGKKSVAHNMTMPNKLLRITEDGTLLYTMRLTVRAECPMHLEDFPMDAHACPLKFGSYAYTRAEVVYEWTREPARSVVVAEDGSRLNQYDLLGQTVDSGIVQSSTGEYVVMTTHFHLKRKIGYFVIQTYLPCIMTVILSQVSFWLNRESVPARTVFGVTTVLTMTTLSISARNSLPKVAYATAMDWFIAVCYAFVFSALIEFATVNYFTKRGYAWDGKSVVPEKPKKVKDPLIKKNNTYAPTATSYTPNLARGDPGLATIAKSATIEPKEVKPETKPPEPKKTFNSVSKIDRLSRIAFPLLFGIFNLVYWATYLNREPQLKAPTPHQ
Sequence (P18507 whole entry): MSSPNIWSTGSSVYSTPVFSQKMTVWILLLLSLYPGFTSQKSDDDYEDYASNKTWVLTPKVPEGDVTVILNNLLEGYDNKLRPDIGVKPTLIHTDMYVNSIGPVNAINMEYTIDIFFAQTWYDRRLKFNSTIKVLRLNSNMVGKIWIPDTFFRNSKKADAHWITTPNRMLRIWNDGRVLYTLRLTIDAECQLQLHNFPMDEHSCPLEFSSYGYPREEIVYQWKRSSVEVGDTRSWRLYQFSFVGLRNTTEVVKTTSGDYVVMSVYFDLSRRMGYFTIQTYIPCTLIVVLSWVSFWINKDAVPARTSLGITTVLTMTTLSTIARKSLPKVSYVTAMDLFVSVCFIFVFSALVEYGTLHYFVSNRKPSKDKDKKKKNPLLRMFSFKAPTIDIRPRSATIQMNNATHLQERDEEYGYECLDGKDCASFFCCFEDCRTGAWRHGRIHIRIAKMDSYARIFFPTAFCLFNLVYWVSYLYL
Sequence (P28472 whole entry): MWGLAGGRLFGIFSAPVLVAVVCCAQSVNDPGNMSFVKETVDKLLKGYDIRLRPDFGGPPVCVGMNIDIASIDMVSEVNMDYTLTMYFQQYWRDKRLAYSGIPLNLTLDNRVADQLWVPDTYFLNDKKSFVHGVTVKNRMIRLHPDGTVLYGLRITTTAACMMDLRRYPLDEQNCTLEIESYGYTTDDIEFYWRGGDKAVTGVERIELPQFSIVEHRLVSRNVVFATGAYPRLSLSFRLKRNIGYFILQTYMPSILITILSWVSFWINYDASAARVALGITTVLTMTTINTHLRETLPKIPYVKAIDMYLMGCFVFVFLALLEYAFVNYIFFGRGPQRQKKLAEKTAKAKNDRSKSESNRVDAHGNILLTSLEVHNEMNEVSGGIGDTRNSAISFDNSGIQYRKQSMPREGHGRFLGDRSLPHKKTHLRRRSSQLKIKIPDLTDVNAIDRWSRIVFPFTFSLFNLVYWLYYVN
Assay: Positive allosteric modulation of GABAA alpha1beta3gamma2L in HEK cell plasma membrane assessed as increase in [3H]muscimol binding measured after 10 mins by liquid scintillation counting method
Type: cell membranes
VALUE_KIND: EC50 (µM)
Field format: number, assumed µM, no unit text.

> print(dat)
        structure.smiles  value.kind  unit.label  readout.value
1  CC(C)c1cccc(C(C)C)c1O        EC50          µM            5.4

GABA-A receptor; alpha-1/beta-3/gamma-2 (Homo sapiens, UniProt P14867+P18507+P28472) assay, compound `CC(C)c1cccc(C(C)C)c1CO` , recorded EC50 = 40

Tested on GABA-A receptor; alpha-1/beta-3/gamma-2 (Homo sapiens, UniProt P14867+P18507+P28472): `OCc1ccc(C2(C(F)(F)F)N=N2)cc1` . Observed EC50: 700

Entry `CC(C)c1cc(C2(C(F)(F)F)N=N2)cc(C(C)C)c1CO` under GABA-A receptor; alpha-1/beta-3/gamma-2 (Homo sapiens, UniProt P14867+P18507+P28472) had EC50 of 7.4
